Target: human FXR (NR1H4) (Homo sapiens, UniProt Q96RI1)
Sequence (Q96RI1 1-486): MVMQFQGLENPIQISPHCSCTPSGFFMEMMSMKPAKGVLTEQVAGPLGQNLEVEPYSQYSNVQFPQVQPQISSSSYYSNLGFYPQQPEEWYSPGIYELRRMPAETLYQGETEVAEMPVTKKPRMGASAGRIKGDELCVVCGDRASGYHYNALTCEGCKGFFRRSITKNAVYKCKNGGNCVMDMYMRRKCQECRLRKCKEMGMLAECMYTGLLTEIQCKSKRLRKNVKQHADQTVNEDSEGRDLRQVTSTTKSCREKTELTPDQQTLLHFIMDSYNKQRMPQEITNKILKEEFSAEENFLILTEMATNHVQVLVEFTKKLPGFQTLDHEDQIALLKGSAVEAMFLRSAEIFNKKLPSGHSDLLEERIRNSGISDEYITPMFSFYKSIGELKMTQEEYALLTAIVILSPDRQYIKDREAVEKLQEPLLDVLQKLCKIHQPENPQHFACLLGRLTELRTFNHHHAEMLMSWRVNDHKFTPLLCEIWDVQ
Test: Human FXR (NRIH4) Assay, luciferase reporter
Settings: CHO reporter cells expressing human NR1H4, luciferase, 22 hours incubation
TEST READOUT: EC50

Please review the entries below; each comes with its answer.
{"MOLECULE": "CCOC(=O)c1cccc(S(=O)(=O)C2C3CCC2CC(OCc2c(-c4ccccc4OC(F)(F)F)noc2C2CC2)C3)c1 (centres unmarked)", "EC50": "0.025 to 0.5 µM"}
{"MOLECULE": "CCOC(=O)c1cc(F)c2nc(SC3C4CCC3CC(NCc3c(-c5ccccc5OC(F)(F)F)noc3C3CC3)C4)sc2c1 (centres unmarked)", "EC50": "> 0.5 µM"}
{"MOLECULE": "NS(=O)(=O)c1ccc2nc(NC3C4CCC3CC(OCc3c(-c5ccccc5OC(F)(F)F)noc3C3CC3)C4)sc2c1 (centres unmarked)", "EC50": "0.025 to 0.5 µM"}
{"MOLECULE": "O=C(O)c1cccc(S(=O)(=O)NC2C3CCC2CC(OCc2c(-c4ccccc4OC(F)(F)F)noc2C2CC2)C3)c1 (centres unmarked)", "EC50": "> 0.5 µM"}

Moving on to another molecule below.
Need EC50 of O=C(O)c1ccc2nc(S(=O)(=O)C3C4CCC3CC(OCc3c(-c5ccccc5OC(F)(F)F)noc3C3CC3)C4)sc2c1 (centres unmarked) , thanks.
0.025 to 0.5 µM

----------
In this section, each of the molecules is paired with its reported EC50.
Molecular target: human FXR (NR1H4) (Homo sapiens)
Test: Human FXR (NRIH4) Assay, luciferase reporter
Settings: CHO reporter cells expressing human NR1H4, luciferase, 22 hours incubation
From the text: Determination of a ligand mediated Gal4 promoter driven transactivation to quantify ligand binding mediated activation of FXR. […] The principle application of this reporter assay system is to quantify functional activity of human FXR. […] Luminescence intensity of the reaction is quantified using a plate-reading luminometer, Envision. […] Thus, quantifying changes in luciferase expression in the treated reporter cells provides a sensitive surrogate measure of the changes in FXR activity. […]

{"MOLECULE": "O=C(O)c1ccnc(NC2C3CCC2CC(OCc2c(-c4ccccc4OC(F)(F)F)noc2C2CC2)C3)c1 (centres unmarked) [Example 3-3]", "EC50": "25 to 500 nM"}

Need EC50 of Fc1ccc(CCNC2C3CCC2CC(OCc2c(-c4ccccc4OC(F)(F)F)noc2C2CC2)C3)cc1 (centres unmarked) [Example 15-2] , thanks.
> 500 nM

Need EC50 of O=S(=O)(NC1C2CCC1CC(OCc1c(-c3ccccc3OC(F)(F)F)noc1C1CC1)C2)c1cccc2cccnc12 (centres unmarked) [Example 9-13] , thanks.
25 to 500 nM

Need EC50 of O=C(O)c1cccc2c(S(=O)(=O)NC3C4CCC3CC(OCc3c(-c5ccccc5OC(F)(F)F)noc3C3CC3)C4)cccc12 (centres unmarked) [Example 9-5] , thanks.
< 25 nM

Need EC50 of CC(C)Oc1cc(C(=O)O)cc2sc(N[C@@H]3C[C@H]4C[C@@H]3[C@@H](OCc3c(-c5c(Cl)cccc5Cl)noc3C3CC3)C4)nc12 [Example 7] , thanks.
< 25 nM
